Assign EC50 to each entry below.
MEASUREMENT_PROTOCOL: cytotoxicity toward NIH3T3 fibroblasts, dose response, counter-screen, cell-based, ATP luminescence, mouse fibroblasts (AID 2010);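 further: cells exposed to compound for about 90 hours before reading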
Assay type: functional
The source made the active and inactive calls. No stated cut-off is given here; in the data, actives have a measured EC50 and inactives only a lower limit.

[[record]]
compound = "COc1cc(C(=O)N/N=C(\\c2ccccc2)c2ccccn2)cc(OC)c1OC"
assay_value = "0.75 µM (active)"

[[record]]
compound = "O=C(Nc1nc2c(s1)CCCC2)c1ccc(S(=O)(=O)N2CCCc3ccccc32)cc1"
assay_value = "> 60 µM (inconclusive)"

[[record]]
compound = "O=C(CCC1CCCN(Cc2ccc3c(c2)OCCO3)C1)NCc1ccc(F)c(F)c1 (configuration not stated)"
assay_value = "> 60 µM (not active)"

[[record]]
compound = "Cc1ccccc1NC1=C/C(=N\\S(=O)(=O)c2cccs2)c2ccccc2C1=O"
assay_value = "1.95 µM (active)"

[[record]]
compound = "COc1ccc(NC(=O)c2cc(-c3cccnc3)nc3c(C)c(C)ccc23)c(OC)c1"
assay_value = "> 60 µM (not active)"

[[record]]
compound = "CCCN(CCC)c1nc(-c2ccccn2)nc2ccccc12"
assay_value = "1.76 µM (active)"


For the compound CC1=[N+](C)c2ccc3ccccc3c2C1(C)C , what EC50 is on record?
> 60 µM (not active)
